- MEASUREMENT DESCRIPTION: Cmax in WH rat at 2 mg/kg, po
- Type: ADME, organism-based
- Design: route oral, dose 2 mg/kg
- MEASUREMENT CONTEXT: in vivo
MEASURED METRIC: Cmax (nM)
Please state the figure in nM; there is no need to write the unit.

Ask: Look up and report measured Cmax for this entry: COc1ncc(-c2ccc(C(=O)O)cc2C)cc1-c1ccc(C(F)(F)F)cc1[C@@H]1CC[C@H]2[C@@H](c3cc(C(F)(F)F)cc(C(F)(F)F)c3)OC(=O)N12
Result: 400

* * *

- MEASUREMENT DESCRIPTION: Cmax in rhesus monkey at 2 mg/kg, po
- Assay type: ADME, organism-based, Macaca mulatta
- Set-up: route oral, dose 2 mg/kg
- MEASUREMENT CONTEXT: in vivo
MEASURED METRIC: Cmax (nM)
Please state the figure in nM; there is no need to write the unit.

Ask: Look up and report measured Cmax for this entry: COc1ncc(-c2ccc(C(=O)O)cc2C)cc1-c1ccc(C(F)(F)F)cc1[C@@H]1CC[C@H]2[C@@H](c3cc(C(F)(F)F)cc(C(F)(F)F)c3)OC(=O)N12
Result: 220
